Measured values drawn from ChEMBL document CHEMBL2396655 for this set.

Recorded measurements of log10(IC50), one per entry
- Test system: K562
- procedure.summary: Cytotoxicity against human K562 cells after 96 hrs by trypan blue exclusion assay
- Assay type: functional, cell-based
- assay.context: K562, 96 h
The figures below represent log10 of IC50, where IC50 is stated in µM.

Reading of log10(IC50) for COc1cc(OC)c(/C=C/S(=O)(=O)Nc2ccc(OC)c(NC(C(=O)O)c3ccccc3)c2)c(OC)c1 (stereo not given) with K562: -0.52

Summary: `COc1cc(OC)c(/C=C/S(=O)(=O)Nc2ccc(OC)c(N)c2)c(OC)c1` , K562, log10(IC50) = -2.52

Record for `COc1ccc(NS(=O)(=O)/C=C/c2c(OC)cccc2OC)cc1` under target or system K562: log10(IC50) reported as 0.70

Next:
`COc1cc(OC)c(/C=C/S(=O)(=O)Nc2ccc(F)c([N+](=O)[O-])c2)c(OC)c1` on K562 gives log10(IC50) = 1.88

# value of log10(IC50), K562, item `COc1ccc(NS(=O)(=O)/C=C/c2c(OC)cc(OCCCC(=O)O)cc2OC)cc1N` = 1.00

Hey, K562 data for COC(=O)C(C)Nc1cc(NS(=O)(=O)/C=C/c2c(OC)cc(OC)cc2OC)ccc1OC (stereo not given) : log10(IC50) came out at -0.52

Simply: `O=S(=O)(/C=C/c1ccccc1)Nc1ccc(Cl)cc1` , K562, log10(IC50) = 1.30

K562 assay, molecule COc1cc(OC)c(/C=C/S(=O)(=O)Nc2ccc(OC)c(NC(C(=O)O)c3ccc(F)cc3)c2)c(OC)c1 (stereo not given) , recorded log10(IC50) = -1.70

Hey, K562 data for `COc1ccc(NS(=O)(=O)/C=C/c2c(F)cc(F)cc2F)cc1` : log10(IC50) came out at 1.18

Entry COc1cc(OC)c(/C=C/S(=O)(=O)Nc2ccc(OC)c(NC(C)C(=O)O)c2)c(OC)c1 (stereo not given) , tested on K562, has a reported log10(IC50) of -2.10

* * *

- Tested on: K562
- procedure.summary: Cytotoxicity against human K562 cells after 96 hrs by trypan blue exclusion assay
- Assay type: functional, cell-based
- assay.context: K562, 96 h
IC50 vs 5 µM: less than gives y; not less than gives n.

// below: answered compounds
## Task # strict comparison: is reported IC50 < 5 µM? input = `COc1ccc(NS(=O)(=O)/C=C/c2c(OC)cc(O)cc2OC)cc1`
## Result n

## Task Does this compound meet the criterion IC50 < 5 µM? `COc1cc(OC)c(/C=C/S(=O)(=O)Nc2ccc(OC)c(O)c2)c(OC)c1`
## Result y

Continuing:
## Task In the record for `COc1ccc(NS(=O)(=O)/C=C/c2c(F)c(F)c(F)c(F)c2F)cc1[N+](=O)[O-]` , is IC50 less than 5 µM?
## Result n

## Task In plain terms, does `COC(=O)C(C)(C)Nc1cc(NS(=O)(=O)/C=C/c2c(OC)cc(OC)cc2OC)ccc1OC` come in under 5 µM for IC50?
## Result y

## Task Please check: IC50 for `O=S(=O)(/C=C/c1ccccc1)Nc1ccccc1` , strictly under 5 µM or not?
## Result n

* * *

- Test system: K562
- procedure.summary: Cytotoxicity against human K562 cells after 96 hrs by trypan blue exclusion assay
- Format: functional, cell-based
- assay.context: K562, 96 h
We label by threshold. Values of IC50 strictly beneath 20 µM are YES. Values of 20 µM and up are NO.

Please review the entries below; each comes with its answer.
## Task Does the reported IC50 of `COc1ccc(/C=C/S(=O)(=O)Nc2c(F)c(F)c(F)c(F)c2F)cc1[N+](=O)[O-]` stay below 20 µM?
## Result NO

## Task Confirm or reject: IC50 of COc1cc(OC)c(/C=C/S(=O)(=O)Nc2ccc(OC)c(NC(C(=O)O)c3ccc(Br)cc3)c2)c(OC)c1 (stereo not given) lies strictly below 20 µM
## Result YES

## Task Lab note: IC50 threshold 20 µM. Does this compound come in strictly under it? `COc1ccc(NS(=O)(=O)/C=C/c2c(F)c(F)c(F)c(F)c2F)cc1F`
## Result YES

## Task Please check: IC50 for COc1cc(OC)c(/C=C/S(=O)(=O)Nc2ccc(OC)c(NC(C(=O)O)c3ccc(Cl)cc3)c2)c(OC)c1 (stereo not given) , strictly under 20 µM or not?
## Result YES

Now, please, on to the next compound.
## Task In plain terms, does `COc1ccc(NS(=O)(=O)/C=C/c2ccc(OC)cc2OC)cc1` come in under 20 µM for IC50?
## Result YES
